Assignment: determine reported MIC for the given compounds.
test system: Enterococcus faecalis; experiment: Antimicrobial activity against vancomycin-sensitive Enterococcus faecalis ATCC 29212 by broth microdilution method; assay type: functional
Give the value, in units of µg/mL, as a plain number.

MIC for Enterococcus faecalis with input CCCCCCCCCCCCCCC(=O)N[C@@H](CC(=O)O)C(=O)N[C@H]1CNC(=O)[C@@H]2CCCN2C(=O)[C@H]([C@H](C)CC)NC(=O)[C@H]([C@@H](C)O)NC(=O)CNC(=O)[C@H](CC(=O)O)NC(=O)CNC(=O)C(CC(=O)O)NC(=O)CNC(=O)[C@@H]2CCCCN2C1=O (single isomer, unassigned) equals 4

MIC for Enterococcus faecalis with input "CCCCCCCCCCCCCCNC(=O)N[C@@H](Cc1ccccc1)C(=O)N[C@@H](CC(N)=O)C(=O)N[C@H]1CNC(=O)[C@@H]2CCCN2C(=O)[C@H]([C@H](C)CC)NC(=O)[C@H]([C@@H](C)O)NC(=O)CNC(=O)[C@H](CC(=O)O)NC(=O)CNC(=O)[C@H](CC(=O)O)NC(=O)CNC(=O)[C@@H]2CCCCN2C1=O" equals 2

MIC for Enterococcus faecalis with input "CCCCCCCCCCCCCCCCS(=O)(=O)N[C@@H](Cc1ccccc1)C(=O)N[C@@H](CC(=O)O)C(=O)N[C@H]1CNC(=O)[C@@H]2CCCN2C(=O)[C@H]([C@H](C)CC)NC(=O)[C@H]([C@@H](C)O)NC(=O)CNC(=O)[C@H](CC(=O)O)NC(=O)CNC(=O)[C@H](CC(=O)O)NC(=O)CNC(=O)[C@@H]2CCCCN2C1=O" equals 2

MIC for Enterococcus faecalis with input CCCCCCCCCCCCCCC(=O)N[C@@H](Cc1ccccc1)C(=O)N[C@@H](CC(=O)O)C(=O)N[C@H]1CNC(=O)[C@@H]2CCCN2C(=O)[C@H]([C@H](C)CC)NC(=O)[C@H]([C@@H](C)O)NC(=O)CNC(=O)[C@H](CC(=O)O)NC(=O)CNC(=O)C(CC(=O)O)NC(=O)CNC(=O)[C@@H]2CCCCN2C1=O (single isomer, unassigned) equals 4

====

system: Enterococcus faecium; test: Antimicrobial activity against vancomycin/multidrug-resistant Enterococcus faecium ATCC 51559 by broth microdilution method; type: functional
Reported endpoint: MIC (µg/mL)
Give the value, in units of µg/mL, as a plain number.

// sample "CCCCCCCCCCCCCCCCS(=O)(=O)N[C@@H](Cc1ccccc1)C(=O)N[C@@H](CC(=O)O)C(=O)N[C@H]1CNC(=O)[C@@H]2CCCN2C(=O)[C@H]([C@H](C)CC)NC(=O)[C@H]([C@@H](C)O)NC(=O)CNC(=O)[C@H](CC(=O)O)NC(=O)CNC(=O)[C@H](CC(=O)O)NC(=O)CNC(=O)[C@@H]2CCCCN2C1=O" , its MIC was 4

// sample CCCCCCCCCCCCCCC(=O)N[C@@H](CC(=O)O)C(=O)N[C@H]1CNC(=O)[C@@H]2CCCN2C(=O)[C@H]([C@H](C)CC)NC(=O)[C@H]([C@@H](C)O)NC(=O)CNC(=O)[C@H](CC(=O)O)NC(=O)CNC(=O)C(CC(=O)O)NC(=O)CNC(=O)[C@@H]2CCCCN2C1=O (single isomer, unassigned) , its MIC was 4

// sample CCCCCCCCCCCCCCC(=O)N[C@@H](Cc1ccccc1)C(=O)N[C@@H](CC(=O)O)C(=O)N[C@H]1CNC(=O)[C@@H]2CCCN2C(=O)[C@H]([C@H](C)CC)NC(=O)[C@H]([C@@H](C)O)NC(=O)CNC(=O)[C@H](CC(=O)O)NC(=O)CNC(=O)C(CC(=O)O)NC(=O)CNC(=O)[C@@H]2CCCCN2C1=O (single isomer, unassigned) , its MIC was 8

// sample "CCCCCCCCCCCCCCNC(=O)N[C@@H](Cc1ccccc1)C(=O)N[C@@H](CC(N)=O)C(=O)N[C@H]1CNC(=O)[C@@H]2CCCN2C(=O)[C@H]([C@H](C)CC)NC(=O)[C@H]([C@@H](C)O)NC(=O)CNC(=O)[C@H](CC(=O)O)NC(=O)CNC(=O)[C@H](CC(=O)O)NC(=O)CNC(=O)[C@@H]2CCCCN2C1=O" , its MIC was 8
